# EC50 listing for each entry below
- experimentalTarget: T1, cyno TfR ECD (cynomolgus)
- T1 chain: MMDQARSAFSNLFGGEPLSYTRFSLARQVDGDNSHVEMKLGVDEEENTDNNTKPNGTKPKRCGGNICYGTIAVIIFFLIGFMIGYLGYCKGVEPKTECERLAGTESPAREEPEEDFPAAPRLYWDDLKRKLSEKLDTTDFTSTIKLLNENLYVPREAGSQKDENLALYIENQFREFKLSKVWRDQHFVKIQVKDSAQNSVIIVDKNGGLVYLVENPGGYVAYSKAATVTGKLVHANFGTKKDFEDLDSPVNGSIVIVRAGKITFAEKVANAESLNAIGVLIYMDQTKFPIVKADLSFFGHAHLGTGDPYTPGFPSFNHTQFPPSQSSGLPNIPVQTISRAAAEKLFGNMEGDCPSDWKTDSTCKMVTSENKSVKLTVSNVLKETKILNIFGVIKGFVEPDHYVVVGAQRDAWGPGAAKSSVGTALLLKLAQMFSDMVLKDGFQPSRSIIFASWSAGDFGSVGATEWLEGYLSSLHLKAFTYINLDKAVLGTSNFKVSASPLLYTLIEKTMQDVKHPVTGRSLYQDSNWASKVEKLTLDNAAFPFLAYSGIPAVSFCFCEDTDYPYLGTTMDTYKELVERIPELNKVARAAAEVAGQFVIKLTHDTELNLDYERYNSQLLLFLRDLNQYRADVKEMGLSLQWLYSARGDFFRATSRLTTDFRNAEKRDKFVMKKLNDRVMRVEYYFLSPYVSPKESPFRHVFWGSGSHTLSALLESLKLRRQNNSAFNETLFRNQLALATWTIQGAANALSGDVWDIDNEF
- procedureDetails: ELISA
# number only, unit ng/mL dropped from output

Given the binder hu15G11.v5 LC L33A (antibody, V domains shown) VH: EVQLVQSGAEVKKPGASVKVSCKASGYTFTSYWMHWVRQAPGQRLEWIGEINPTNGRTNYIEKFKSRATLTVDKSASTAYMELSSLRSEDTAVYYCARGTRAYHYWGQGTMVTVSS VL: DIQMTQSPSSLSASVGDRVTITCRASDNLYSNAAWYQQKPGKSPKLLVYDATNLADGVPSRFSGSGSGTDYTLTISSLQPEDFATYYCQHFWGTPLTFGQGTKVEIK , what is its reported EC50?
0.1

Moving on to hu15G11.v5 LC Y30A (antibody, V domains shown) VH: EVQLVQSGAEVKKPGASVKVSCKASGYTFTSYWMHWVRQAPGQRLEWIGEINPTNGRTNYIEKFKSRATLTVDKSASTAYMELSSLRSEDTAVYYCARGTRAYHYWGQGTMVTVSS VL: DIQMTQSPSSLSASVGDRVTITCRASDNLASNLAWYQQKPGKSPKLLVYDATNLADGVPSRFSGSGSGTDYTLTISSLQPEDFATYYCQHFWGTPLTFGQGTKVEIK
1

Next:
Given the binder hu15G11.v5 HC Y32A (antibody, V domains shown) VH: EVQLVQSGAEVKKPGASVKVSCKASGYTFTSAWMHWVRQAPGQRLEWIGEINPTNGRTNYIEKFKSRATLTVDKSASTAYMELSSLRSEDTAVYYCARGTRAYHYWGQGTMVTVSS VL: DIQMTQSPSSLSASVGDRVTITCRASDNLYSNLAWYQQKPGKSPKLLVYDATNLADGVPSRFSGSGSGTDYTLTISSLQPEDFATYYCQHFWGTPLTFGQGTKVEIK , what is its reported EC50?
1.4
